Test system: K562-tax (human myeloid leukaemia resistant to taxol)
ASSAY METHOD TEXT: MTT cytotoxic test, K562-tax
Format: cell-based
REPORTED CONDITIONS: K562-TAX cells, mean (x); read-out: Cytotoxic and antiproliferation activity MTT test (IC50, μM) K562-TAX x
The compounds listed here are annotated with their IC50.
Answer format: value, then unit.

Observe how each entry below is paired with its result.
COMPOUND	REPORTED
O=c1c(O)c(-c2ccc(NCCO)c([N+](=O)[O-])c2)[nH]c2ccccc12 [—NH(CH2)2OH]	44.9 µM
CC(C)Nc1ccc(-c2[nH]c3ccccc3c(=O)c2O)cc1[N+](=O)[O-] [—NHCH(CH3)2]	3 µM
CCN(C)c1ccc(-c2[nH]c3ccccc3c(=O)c2O)cc1[N+](=O)[O-] [—N(CH3)(CH2CH3)]	163 µM
O=c1c(O)c(-c2ccc(NCCCCCO)c([N+](=O)[O-])c2)[nH]c2ccccc12 [—NH(CH2)5OH]	5.7 µM
C/C=C/CCSc1ccc(-c2[nH]c3ccccc3c(=O)c2O)cc1[N+](=O)[O-]	5.2 µM

Could you share what IC50 was measured for CCCN(CCC)c1ccc(-c2[nH]c3ccccc3c(=O)c2O)cc1[N+](=O)[O-] [—N(CH2CH2CH3)2] , tested on K562-tax (human myeloid leukaemia resistant to taxol)? 1.2 µM

Please answer likewise for O=c1c(O)c(-c2ccc(N(CCO)CCO)c([N+](=O)[O-])c2)[nH]c2ccccc12 [—N(CH2CH2OH)2] 198 µM

---

The compounds listed here are annotated with their IC50.
Test system: A549 (human lung adenocarcinoma)
ASSAY METHOD TEXT: MTT cytotoxic test, A549
Type: cell-based
REPORTED CONDITIONS: A 549 cells, mean (x); read-out: Cytotoxic and antiproliferation activity MTT test (IC50, μM) A 549 x
Form entry: value (µM) — number only.

Observe how each entry below is paired with its result.
COMPOUND	EXPERIMENTAL SYSTEM	IC50 / µM
O=c1c(O)c(-c2ccc(NCCCCO)c([N+](=O)[O-])c2)[nH]c2ccccc12 [—NH(CH2)4OH]	A549 (human lung adenocarcinoma)	5.7
O=c1c(O)c(-c2ccc(Cl)c([N+](=O)[O-])c2)[nH]c2ccccc12 [Cl]	A549 (human lung adenocarcinoma)	4.2
C/C=C/CCSc1ccc(-c2[nH]c3ccccc3c(=O)c2O)cc1[N+](=O)[O-]	A549 (human lung adenocarcinoma)	4.3

Shift focus to the following entry.
Quick one: IC50 of CC(C)Nc1ccc(-c2[nH]c3ccccc3c(=O)c2O)cc1[N+](=O)[O-] [—NHCH(CH3)2] ? 2.8

---

Tested on: K562 (human myeloid leukaemia)
ASSAY METHOD TEXT: MTT cytotoxic test, K562
Type: cell-based
REPORTED CONDITIONS: K 562 cells, mean (x); read-out: Cytotoxic and antiproliferation activity MTT test (IC50, μM) K 562 x
OBSERVED PROPERTY: IC50 (µM)
Form entry: value (µM) — number only.

Observe how each entry below is paired with its result.
MOLECULE	IC50 / µM
CCN(C)c1ccc(-c2[nH]c3ccccc3c(=O)c2O)cc1[N+](=O)[O-] [—N(CH3)(CH2CH3)]	0.7
CCCCCCn1cnc2cc(-c3[nH]c4ccccc4c(=O)c3O)ccc21 [—(CH2)5CH3]	8.5

Could you share what IC50 was measured for "C/C=C/CCSc1ccc(-c2[nH]c3ccccc3c(=O)c2O)cc1[N+](=O)[O-]" , tested on K562 (human myeloid leukaemia)? 9.3

Please answer likewise for CCN(CC)CCn1cnc2cc(-c3[nH]c4ccccc4c(=O)c3O)ccc21 [—(CH2)2N(C2H5)2] 2.1

---

The compounds listed here are annotated with their IC50.
System: CEM-DNR-bulk (T-lymphoblastic leukaemia resistant to doxorubicine)
ASSAY METHOD TEXT: MTT cytotoxic test, CEM-DNR-bulk
Format: cell-based
REPORTED CONDITIONS: CEM-DNR-BULK cells, mean (x); read-out: Cytotoxic and antiproliferation activity MTT test (IC50, μM) CEM-DNR-BULK x
Form entry: value (µM) — number only.

Observe how each entry below is paired with its result.
RECORD SMILES	OBSERVED PROPERTY	REPORTED
O=c1c(O)c(-c2ccc(NCCCO)c([N+](=O)[O-])c2)[nH]c2ccccc12	IC50	46.3
C/C=C/CCSc1ccc(-c2[nH]c3ccccc3c(=O)c2O)cc1[N+](=O)[O-]	IC50	3.2
O=c1c(O)c(-c2ccc(N(CCO)CCO)c([N+](=O)[O-])c2)[nH]c2ccccc12	IC50	143
CCN(CC)CCn1cnc2cc(-c3[nH]c4ccccc4c(=O)c3O)ccc21	IC50	71.2

Shift focus to the following entry.
Quick one: IC50 of "CC(C)Nc1ccc(-c2[nH]c3ccccc3c(=O)c2O)cc1[N+](=O)[O-]" ? 6.8

---

Tested on: K562 (human myeloid leukaemia)
ASSAY METHOD TEXT: MTT cytotoxic test, K562
Assay type: cell-based
REPORTED CONDITIONS: K 562 cells, mean (x); read-out: Cytotoxic and antiproliferation activity MTT test (IC50, μM) K 562 x
OBSERVED PROPERTY: IC50 (µM)
Form entry: value (µM) — number only.

Observe how each entry below is paired with its result.
RECORD SMILES	IC50 [µM]
O=c1c(O)c(-c2ccc(NCCCCCO)c([N+](=O)[O-])c2)[nH]c2ccccc12	2.8
CC(C)Nc1ccc(-c2[nH]c3ccccc3c(=O)c2O)cc1[N+](=O)[O-]	2.1
O=c1c(O)c(-c2ccc3c(c2)ncn3CCSCCO)[nH]c2ccccc12	3.1
O=c1c(O)c(-c2ccc(NCCCCO)c([N+](=O)[O-])c2)[nH]c2ccccc12	1.8
O=c1c(O)c(-c2ccc(N(CCO)CCO)c([N+](=O)[O-])c2)[nH]c2ccccc12	187

Could you share what IC50 was measured for "CCCN(CCC)c1ccc(-c2[nH]c3ccccc3c(=O)c2O)cc1[N+](=O)[O-]" , tested on K562 (human myeloid leukaemia)? 0.6

Please answer likewise for "O=c1c(O)c(-c2ccc(Cl)c([N+](=O)[O-])c2)[nH]c2ccccc12" 2.3

Please answer likewise for "O=c1c(O)c(-c2ccc(NCCO)c([N+](=O)[O-])c2)[nH]c2ccccc12" 7.3

---

Tested on: CEM-DNR-bulk (T-lymphoblastic leukaemia resistant to doxorubicine)
ASSAY METHOD TEXT: MTT cytotoxic test, CEM-DNR-bulk
Assay type: cell-based
REPORTED CONDITIONS: CEM-DNR-BULK cells, mean (x); read-out: Cytotoxic and antiproliferation activity MTT test (IC50, μM) CEM-DNR-BULK x
OBSERVED PROPERTY: log10 of IC50 (log10 of the value in µM)
Values are log10 of IC50 in µM.

RECORD SMILES	log10 of IC50
O=c1c(O)c(-c2ccc(NCCCCCO)c([N+](=O)[O-])c2)[nH]c2ccccc12	1.03
O=c1c(O)c(-c2ccc3c(c2)ncn3CCSCCO)[nH]c2ccccc12	0.34
O=c1c(O)c(-c2ccc(NCCCCO)c([N+](=O)[O-])c2)[nH]c2ccccc12	1.18
CCCCCCn1cnc2cc(-c3[nH]c4ccccc4c(=O)c3O)ccc21	1.73
O=c1c(O)c(-c2ccc(NCCO)c([N+](=O)[O-])c2)[nH]c2ccccc12	1.99
CCN(C)c1ccc(-c2[nH]c3ccccc3c(=O)c2O)cc1[N+](=O)[O-]	2.11

Quick one: log10 of IC50 of "CCCN(CCC)c1ccc(-c2[nH]c3ccccc3c(=O)c2O)cc1[N+](=O)[O-]" ? 0.34

Please answer likewise for "O=c1c(O)c(-c2ccc(Cl)c([N+](=O)[O-])c2)[nH]c2ccccc12" 0.54

---

OBSERVED PROPERTY: melting point

Observe how each entry below is paired with its result.
RECORD SMILES	REPORTED
CCNc1ccc(-c2[nH]c3ccccc3c(=O)c2O)cc1[N+](=O)[O-]	282 to 285 °C
O=c1c(O)c(-c2ccc(Sc3ccccc3)c([N+](=O)[O-])c2)[nH]c2ccccc12	322 to 324 °C
O=c1c(O)c(-c2ccc(N3CCN(CCOCCO)CC3)c([N+](=O)[O-])c2)[nH]c2ccccc12	203 to 204 °C
O=c1c(O)c(-c2ccc(N3CCN(CCO)CC3)c([N+](=O)[O-])c2)[nH]c2ccccc12	218 to 221 °C

Quick one: melting point of "O=c1c(O)c(-c2ccc(NCCCO)c([N+](=O)[O-])c2)[nH]c2ccccc12" ? 233 to 236 °C

Please answer likewise for "O=c1c(O)c(-c2ccc(-n3ccnc3)c([N+](=O)[O-])c2)[nH]c2ccccc12" 278 to 280 °C

---

System: A549 (human lung adenocarcinoma)
ASSAY METHOD TEXT: MTT cytotoxic test, A549
Format: cell-based
REPORTED CONDITIONS: A 549 cells, mean (x); read-out: Cytotoxic and antiproliferation activity MTT test (IC50, μM) A 549 x
The compounds listed here are annotated with their IC50.
Form entry: value (µM) — number only.

RECORD SMILES	IC50 / µM
O=c1c(O)c(-c2ccc(NCCO)c([N+](=O)[O-])c2)[nH]c2ccccc12	46.8
CCCCCCn1cnc2cc(-c3[nH]c4ccccc4c(=O)c3O)ccc21	44.3
CCN(C)c1ccc(-c2[nH]c3ccccc3c(=O)c2O)cc1[N+](=O)[O-]	66.5
CCN(CC)CCn1cnc2cc(-c3[nH]c4ccccc4c(=O)c3O)ccc21	3.5
CCCN(CCC)c1ccc(-c2[nH]c3ccccc3c(=O)c2O)cc1[N+](=O)[O-]	1.1
O=c1c(O)c(-c2ccc(NCCCCCO)c([N+](=O)[O-])c2)[nH]c2ccccc12	5.3

Could you share what IC50 was measured for "O=c1c(O)c(-c2ccc(N(CCO)CCO)c([N+](=O)[O-])c2)[nH]c2ccccc12" , tested on A549 (human lung adenocarcinoma)? 224

Please answer likewise for "O=c1c(O)c(-c2ccc3c(c2)ncn3CCSCCO)[nH]c2ccccc12" 3.6
